Reference source for all entries: BindingDB's records for PubMed 8102785

So I've got a bunch of compounds here, and I need their pKi values.
system tested: UniProt:P30937
Sequence (P30937 whole entry): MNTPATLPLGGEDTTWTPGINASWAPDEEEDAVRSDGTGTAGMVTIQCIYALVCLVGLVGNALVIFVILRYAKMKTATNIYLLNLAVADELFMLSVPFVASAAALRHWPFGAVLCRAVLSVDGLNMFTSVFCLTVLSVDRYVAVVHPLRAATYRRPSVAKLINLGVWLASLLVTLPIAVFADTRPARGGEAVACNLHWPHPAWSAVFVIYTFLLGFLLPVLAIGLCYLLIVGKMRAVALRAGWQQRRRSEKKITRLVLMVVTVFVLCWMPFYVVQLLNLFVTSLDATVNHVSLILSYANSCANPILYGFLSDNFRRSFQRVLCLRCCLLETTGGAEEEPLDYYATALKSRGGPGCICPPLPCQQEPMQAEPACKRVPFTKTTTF
*1 amine or outer side, *2 acyl side, *3 side chain or, on linkers, in order; H or OH if unused. Where a SMILES comes first, the peptide text is derived from it. Bridges are numbered along the chain shown (N, C = ends). [ ]: non-standard residue; d: D form. Phe(4-Cl) = N[C@@H](Cc1ccc(Cl)cc1)C(=O)O; 2Nal = N[C@@H](Cc1ccc2ccccc2c1)C(=O)O; dNMeF = CN[C@H](Cc1ccccc1)C(=O)O; X1 = O=C(C(N[*:1])S[*:3])[*:2]; dNMeA = CN[C@H](C)C(=O)O; Ahp = NCCCCCCC(=O)O; Mpa = O=C(O)CCS
// returns pKi (minus log10 of molar concentration), number only

Prompt line: What value of pKi has been recorded for this entry: C[C@@H](O)[C@H](NC(=O)[C@H](Cc1ccccc1)NC(=O)[C@@H](NC(=O)[C@H](CCCCN)NC(=O)[C@@H](Cc1c[nH]c2ccccc12)NC(=O)[C@H](Cc1ccccc1)NC(=O)[C@H](Cc1ccccc1)NC(=O)[C@H](N)Cc1ccccc1)[C@@H](C)O)C(N)=O [CAS_133073-82-2] (H-[dF]FF[dW]KTFT-NH2)
Response line: 11.70

Prompt line: Which pKi reading was recorded for the compound CC(C)[C@H](NC(=O)[C@H](CCCCN)NC(=O)[C@@H](Cc1c[nH]c2ccccc12)NC(=O)[C@H](Cc1ccc(O)cc1)NC(=O)[C@H](Cc1ccc(Cl)cc1)NC(=O)[C@H](N)Cc1ccccc1)C(=O)N[C@@H](Cc1ccccc1)C(=O)N[C@H](C(N)=O)[C@@H](C)O [BIM 23057] (H-[dF][Phe(4-Cl)]Y[dW]KVFT-NH2) ?
Response line: 8.09

Prompt line: Sample CC(C)[C@@H]1NC(=O)[C@H](CCCCN)NC(=O)[C@@H](Cc2c[nH]c3ccccc23)NC(=O)[C@H](Cc2ccc(O)cc2)NC(=O)CCSSC(C(=O)N[C@@H](Cc2ccccc2)C(N)=O)NC1=O (stereo partly specified) [CAS_117580-24-2] ([Mpa]Y[dW]KV[X1]F-NH2; disulfide 1-6) — what was its pKi?
Response line: 8.41

Prompt line: Given C[C@@H](O)[C@@H]1NC(=O)[C@H](CCCCN)NC(=O)[C@@H](Cc2c[nH]c3ccccc23)NC(=O)[C@H](Cc2ccccc2)NC(=O)CCCCCCNC1=O [c[Aha-Phe-D-Trp-Lys-Thr]] (cyclo([Ahp]F[dW]KT)) , state its recorded pKi.
Response line: 6.00

Prompt line: Find the recorded pKi belonging to C[C@H](O)[C@H]1NC(=O)[C@H](CCCCN)NC(=O)[C@@H](Cc2c[nH]c3ccccc23)NC(=O)[C@@H](Cc2ccccc2)NC(=O)[C@@H](C)N(C)C(=O)[C@@H](Cc2ccccc2)N(C)C1=O (cyclo(K[dT][dNMeF][dNMeA][dF][dW])) and report it.
Response line: 6.39

Prompt line: Could you share which pKi value was measured for CC(C)[C@H](NC(=O)[C@H](CCCCN)NC(=O)[C@@H](Cc1c[nH]c2ccccc12)NC(=O)[C@H](Cc1ccc(O)cc1)NC(=O)[C@H](C)NC(=O)[C@H](N)Cc1ccccc1)C(=O)N[C@@H](C)C(=O)N[C@@H](Cc1ccc2ccccc2c1)C(N)=O (H-[dF]AY[dW]KVA[2Nal]-NH2) ?
Response line: 7.54
